What koff was measured for each of the following?
Target: T1, huCD46-His (human, UniProt P15529 35-343)
T1 construct: extracellular domain; Immobilised by amine coupling on the SPR chip; It may be the same protein as the ELISA antigen; also called Human CD46-His; human CD46; not shown: His tag
T1 sequence (looked up): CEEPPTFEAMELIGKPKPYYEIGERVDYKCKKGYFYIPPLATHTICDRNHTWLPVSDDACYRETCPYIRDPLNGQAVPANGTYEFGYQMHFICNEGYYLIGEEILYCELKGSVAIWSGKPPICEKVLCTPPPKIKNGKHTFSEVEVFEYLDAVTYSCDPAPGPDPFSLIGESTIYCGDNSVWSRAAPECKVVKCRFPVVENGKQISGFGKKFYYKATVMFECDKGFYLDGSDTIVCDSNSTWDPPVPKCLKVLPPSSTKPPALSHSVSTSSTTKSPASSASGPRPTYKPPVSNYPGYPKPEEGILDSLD
Assay: SPR, huCD46-His immobilised, antibody as analyte, pH 6.0

BA-133-04-01 (antibody, V domains shown, also called CPE hit BA133-04-01) VH: EVQLVESGGGLVQPGGSLRLSCAASGGSVSSYDISWIRQSPSRGLEWLGVIWTDGGTNYNSAFMSRFTISRDDSKNTAYLQMNSLKTEDTAVYYCERVYDGYPWFAYWGQGTLVTVSS VL: AIQLTQSPSSLSASVGDRVTITCRASQWISNYLNWYLQKPGQSPQLLIYYTSSLHSGVPDRFSGSGSGTDFTLKISRVEAEDVGVYYCQQYIKLPWTFGQGTKVEIK | 0.00113 s⁻¹

Next item in the queue.
Looking up BA-133-04-04 (antibody, V domains shown, the killing assays used the ADC form; also called CPE hit BA133-04-04) VH: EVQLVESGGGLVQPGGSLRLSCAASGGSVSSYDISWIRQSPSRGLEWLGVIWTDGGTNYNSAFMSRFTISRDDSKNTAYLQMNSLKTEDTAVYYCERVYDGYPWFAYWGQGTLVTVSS VL: AIQLTQSPSSLSASVGDRVTITCRASQGISNYLNWYLQKPGQSPQLLIYYTSSLHEGVPDRFSGSGSGTDFTLKISRVEAEDVGVYYCQQYIKLPWTFGQGTKVEIK , I found its koff recorded as 0.00207 s⁻¹

Entry source: patent US20230242662A1
